# Test system: "G-I-A" mutant (pNL-Bal, gp41 V38A)
# TEST CONTEXT: "G-I-A" mutant, R5
ASSAY METRIC: IC50
A complete answer gives the number and then names the unit.

O=C1Nc2ccc(Cl)cc2[C@@](C#CC2CC2)(C(F)(F)F)O1 ... 0.0017 µM

In the following, a different molecule is considered.
// map "O=C(CNC1CCCCC1)Nc1cccc(C(=O)Nc2cccc(C(F)(F)F)c2)c1" to recorded IC50 (system: "G-I-A" mutant (pNL-Bal, gp41 V38A))
7.6 µM
